For each entry below, report its aptazyme ON/OFF ratio value.
B1: Pistol ribozyme (parent)
chain: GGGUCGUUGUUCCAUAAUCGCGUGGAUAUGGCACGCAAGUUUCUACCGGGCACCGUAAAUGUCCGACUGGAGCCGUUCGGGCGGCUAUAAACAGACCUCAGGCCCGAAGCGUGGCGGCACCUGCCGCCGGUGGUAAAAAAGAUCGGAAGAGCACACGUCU

- Variants of: B1
- assay_info: aptazyme ON/OFF ratio, guanine; higher = stronger switching; co-transcriptional cleavage with and without guanine

What aptazyme ON/OFF ratio value was documented for this variant, U7G G9C U10A C12A C13A ?
1.2

Next up: U7G U8C G9A U11C C13G
1.06

Next up: U7A U8G G9C U10C U11A
1.03

Next up: U8A G9U U10C U11G C12A C13G
1.25

Next up: U8C G9U U10G U11G C13U
1.27

Next up: U7A U8C G9A U10A U11G
1.26

Next up: U7A U10A U11C C12U C13G
1.07

Next up: U7A U8A G9C U10C C12G C13G
1.05

Next up: U7G U8A U10C C12A C13G
1.27

Next up: U7A U8C G9U U10A U11G C12U C13U
1.21

Next up: U8A G9A U11G C12G
1.08
